B1: NF2 (merlin) isoform 7, human, full length (507 aa, lacks exons 2-3 = isoform-1 residues 39-121; exon-16 C-terminus), P35240-4 (parent)
chain: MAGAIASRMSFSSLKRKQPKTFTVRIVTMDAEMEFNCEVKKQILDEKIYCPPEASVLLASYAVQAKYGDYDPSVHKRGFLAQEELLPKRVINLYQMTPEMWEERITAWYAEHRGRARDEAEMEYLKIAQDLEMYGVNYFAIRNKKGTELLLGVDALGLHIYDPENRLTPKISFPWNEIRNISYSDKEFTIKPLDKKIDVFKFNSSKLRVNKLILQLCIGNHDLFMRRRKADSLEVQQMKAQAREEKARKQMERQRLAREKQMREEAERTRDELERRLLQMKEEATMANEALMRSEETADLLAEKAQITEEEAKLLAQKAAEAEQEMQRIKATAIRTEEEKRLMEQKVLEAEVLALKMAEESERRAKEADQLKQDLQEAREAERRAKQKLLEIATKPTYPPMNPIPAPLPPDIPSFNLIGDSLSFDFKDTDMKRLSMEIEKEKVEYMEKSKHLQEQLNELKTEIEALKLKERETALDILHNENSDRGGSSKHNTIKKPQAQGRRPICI

variants of: B1; experiment: reverse yeast two-hybrid deep mutational scan (rY2H-seq): NF2 isoform 7 mutant library as bait mated with wild-type prey strains; selection on medium lacking adenine for non-interacting pairs; NextSeq paired-end sequencing; enrichment vs …; details: with EMILIN1 (elastin microfibril interfacer 1), Q9Y6C2; yeast diploids after mating (RBait_S3 x RPrey_S3), 30 °C, selection for reporter genes on NB agar; human tyrosine kinase ABL2 co-expressed as the active kinase …; HIGHER = WEAKER BINDING (the opposite of display enrichments): higher = stronger loss of interaction: reverse Y2H selects yeast in which bait and prey do NOT interact (growth without adenine), so a …; hits-only table; scale: rY2H score; numbering: uniprot, sequence starts at 1
Assay readout: enrichment

P87S	1.61

// sample M326E , its enrichment was 3.65

// sample R248K , its enrichment was 1.55

// sample L371E , its enrichment was 3.71
